Collected set of pIC50 measured with O-acyltransferase (Oryctolagus cuniculus, UniProt G1SFD9) across studies.
// pIC50 here means minus log10 of the molar concentration (mol/L)

CCCCCCCCCCCCCCS(=O)(=O)NC(=O)Nc1ccc(F)cc1F; 5.30
CC(C)c1cccc(C(C)C)c1NC(=O)C1CCCC(CCCCCOc2ccccc2)(c2ccccc2)C1=O (stereo not drawn); 7.14
O=C(Nc1ccc(F)cc1F)N(Cc1ccccc1)CC1(c2ccccc2)CCCC1; 7.05
CCCCCCCC/C=C\CCCCCCCCC(C)(C)C(=O)Nc1c(OC)cc(OC)cc1OC; 6.96
CCCCCCCCCCCCC(CC)C(=O)Nc1c(OC)cc(OC)cc1OC (stereo not drawn); 7.30
CCCCCCc1csc(NC(=O)Nc2c(C(C)C)cccc2C(C)C)n1; 5.80

# input for lookup
q: Looking for the measured pIC50 of CCCCCCCCCCC(CCC)C(=O)NC(C)c1ccccn1 (stereo not drawn) , can you help?
a: 5.43
